- MEASURED_TARGET: LmjIPCS (inositol phosphorylceramide synthase from L. major) (Leishmania major)
- PROTOCOL: biochemical
- Format: biochemical
Catalogue of 20mM inhibition LmjIPCS readings, one per entry.
Please respond with the number in % and leave the unit unwritten.

COMPOUND	PARAMETER_MEASURED	MEASURED_VALUE
CN1CCOC(c2ccccc2)c2ccccc2C1 (stereo not shown) [NEFOPAM]	20mM inhibition LmjIPCS	68
CNC(Cc1c[nH]c2ccccc12)C(=O)O (stereo not shown) [ABRINE (L)]	20mM inhibition LmjIPCS	-1
O=C(CCCN1CC=C(n2c(=O)[nH]c3ccccc32)CC1)c1ccc(F)cc1 [DROPERIDOL]	20mM inhibition LmjIPCS	56
CC[C@@]1(O)C[C@H](O[C@H]2C[C@H](N(C)C)[C@H](O)[C@H](C)O2)c2c(cc3c(c2O)C(=O)c2c(O)cccc2C3=O)[C@H]1C(=O)OC [AKLAVINE]	20mM inhibition LmjIPCS	59
Cc1onc(-c2ccccc2Cl)c1C(=O)N[C@@H]1C(=O)N2[C@@H]1SC(C)(C)[C@@H]2C(=O)O [CLOXACILLIN]	20mM inhibition LmjIPCS	45

Quote 20mM inhibition LmjIPCS reported for Nc1ccc(C(=O)O)c(O)c1 [AMINOSALICYLATE SODIUM] please.
43

Quote 20mM inhibition LmjIPCS reported for NCCCCCC(=O)O [6-AMINOCAPROIC ACID] please.
43

Quote 20mM inhibition LmjIPCS reported for CCN1CCCC(OC(=O)C(c2ccccc2)c2ccccc2)C1 (stereo not shown) [PIPERIDOLATE] please.
39

Quote 20mM inhibition LmjIPCS reported for COc1ccc2cc1Oc1ccc(cc1)C[C@H]1c3cc(c(OC)cc3CCN1C)Oc1c(OC)c(OC)cc3c1[C@H](C2)N(C)CC3 [TETRANDRINE] please.
65

Quote 20mM inhibition LmjIPCS reported for O=C(O)c1cc(O)c2c(c1)[C@H]([C@H]1c3cc(C(=O)O)cc(O)c3C(=O)c3c(O[C@@H]4O[C@H](CO)[C@@H](O)[C@H](O)[C@H]4O)cccc31)c1cccc(O[C@@H]3O[C@H](CO)[C@@H](O)[C@H](O)[C@H]3O)c1C2=O [SENNOSIDE A] please.
62

Quote 20mM inhibition LmjIPCS reported for CCN1CCCC1CNC(=O)c1cc(S(N)(=O)=O)ccc1OC (stereo not shown) [SULPIRIDE] please.
43

Quote 20mM inhibition LmjIPCS reported for CCOC(=O)OC(C)OC(=O)[C@@H]1N2C(=O)[C@@H](NC(=O)[C@H](N)c3ccccc3)[C@H]2SC1(C)C (stereo partly shown) [BACAMPICILLIN] please.
48

Quote 20mM inhibition LmjIPCS reported for CCCCOc1ccc(OCCCN2CCOCC2)cc1 [PRAMOXINE] please.
71

Quote 20mM inhibition LmjIPCS reported for CC1(C)O[C@@H]2C[C@H]3[C@@H]4CCC5=CC(=O)C=C[C@]5(C)[C@@]4(F)[C@@H](O)C[C@]3(C)[C@]2(C(=O)CO)O1 [TRIAMCINOLONE ACETONIDE] please.
37

Quote 20mM inhibition LmjIPCS reported for CCN(CCCCOC(=O)c1ccc(OC)c(OC)c1)C(C)Cc1ccc(OC)cc1 (stereo not shown) [MEBEVERINE] please.
54

Quote 20mM inhibition LmjIPCS reported for CC(C)(Oc1ccc(Cl)cc1)C(=O)O [CLOFIBRIC ACID] please.
56

###

- MEASURED_TARGET: LmjIPCS (inositol phosphorylceramide synthase from L. major) (Leishmania major)
- Sequence (E9AFX2 1-338): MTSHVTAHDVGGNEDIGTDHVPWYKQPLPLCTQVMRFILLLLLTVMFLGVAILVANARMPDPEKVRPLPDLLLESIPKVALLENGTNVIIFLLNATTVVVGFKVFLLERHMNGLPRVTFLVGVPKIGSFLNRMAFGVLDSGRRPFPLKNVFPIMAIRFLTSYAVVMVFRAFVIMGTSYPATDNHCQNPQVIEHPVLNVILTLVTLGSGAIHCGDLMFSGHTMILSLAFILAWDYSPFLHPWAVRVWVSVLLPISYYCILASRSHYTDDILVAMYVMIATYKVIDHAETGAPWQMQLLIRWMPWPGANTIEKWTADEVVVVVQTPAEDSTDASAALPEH
- PROTOCOL: biochemical
- Assay type: biochemical
- Set-up: dose or concentration left out as unconfirmed
- CONDITION_CONTEXT: read-out: inhibition LmjIPCS
Could you label it True if measured inhibition is 20% or higher, and False otherwise?

Known results for compounds:
> print(dat)
                                   compound  assigned.class
1  CCCCNc1cc(C(=O)O)cc(S(N)(=O)=O)c1Oc1ccccc1 [BUMETANIDE]           False
2  COc1cc2c(cc1OC)[C@@H]1Cc3ccc(OC)c(OC)c3CN1CC2 [TETRAHYDROPALMATINE]            True
3               c1coc(CNc2ncnc3[nH]cnc23)c1           False

# bool: inhibition of "CNC(=C[N+](=O)[O-])NCCSCc1ccc(CN(C)C)o1" >= 20%
False

# bool: inhibition of "CC1(C)[C@@H](OC(=O)CCC(=O)O)CC[C@]2(C)[C@H]3C(=O)C=C4[C@@H]5C[C@@](C)(C(=O)O)CC[C@]5(C)CC[C@@]4(C)[C@]3(C)CC[C@@H]12" >= 20%
False

# bool: inhibition of CC(NC(C)(C)C)C(=O)c1cccc(Cl)c1 (centres unmarked) >= 20%
True

# bool: inhibition of CCN(CC)CCNC(=O)c1cc(Cl)c(N)cc1OC [METOCLOPRAMIDE] >= 20%
False

# bool: inhibition of "CC1(C)S[C@@H]2[C@H](NC(=O)[C@H](N)c3ccccc3)C(=O)N2[C@H]1C(=O)O" >= 20%
True

###

- MEASURED_TARGET: UniProtKB E9AFX2
- PROTOCOL: biochemical
- Type: biochemical
PARAMETER_MEASURED: 20mM inhibition LmjIPCS (%)
Please respond with the number in % and leave the unit unwritten.

MOLECULE	MEASURED_VALUE
CC[C@@H](CO)NC(=O)[C@@H]1C=C2c3cccc4[nH]cc(c34)C[C@H]2N(C)C1 [METHYLERGONOVINE]	35
C[C@@H]1C[C@H]2[C@@H]3C[C@H](F)C4=CC(=O)C=C[C@]4(C)[C@@]3(F)[C@@H](O)C[C@]2(C)[C@@]1(O)C(=O)COC(=O)C(C)(C)C [FLUMETHAZONE PIVALATE]	14
CN1CCC(=C2c3ccccc3CC(=O)c3sccc32)CC1 [KETOTIFEN]	36

Quote 20mM inhibition LmjIPCS reported for CC(C)=CC1C(C(=O)OCc2cccc(Oc3ccccc3)c2)C1(C)C (stereo not shown) [PHENOTHRIN] please.
39

Quote 20mM inhibition LmjIPCS reported for Cc1cc(=O)n(-c2ccccc2)n1C [ANTIPYRINE] please.
36

Quote 20mM inhibition LmjIPCS reported for COc1ccc(CCN(C)CCCC(C#N)(c2ccc(OC)c(OC)c2)C(C)C)cc1OC (stereo not shown) please.
42

Quote 20mM inhibition LmjIPCS reported for Cc1cccc(C)c1NC(=O)C1CCCCN1C (stereo not shown) [MEPIVACAINE] please.
55

Quote 20mM inhibition LmjIPCS reported for Cc1cc2c(C(C)C)c(O)c(O)c(C=O)c2c(O)c1-c1c(C)cc2c(C(C)C)c(O)c(O)c(C=O)c2c1O [GOSSYPOL] please.
37

Quote 20mM inhibition LmjIPCS reported for COc1ccc2c(c1)[C@]13CCCC[C@@H]1[C@H](C2)N(C)CC3 [DEXTROMETHORPHAN] please.
64

###

- Test system: L. major (FV1) promastigotes
- PROTOCOL: Antipromastigote resazurin assay, L. major (FV1) wild type
- Type: cell-based, Leishmania major
- CONDITION_CONTEXT: L. major promastigotes, dose response
PARAMETER_MEASURED: ED50 vs L. major (mM)
Please respond with the number in mM and leave the unit unwritten.

Completed entries (count: 2):
> print(dat)
                                   compound  uom  measured.value
1  CN(C)CCCN1c2ccccc2Sc2ccc(Cl)cc21 [chlorpromazine 3, chlorpromazine, reference compound]   mM            9.80
2  N=C1C=CC(=C(c2ccc(N)cc2)c2ccc(N)cc2)C=C1 [pararosaniline 8, pararosaniline]   mM            9.78

Quote ED50 vs L. major reported for CCCCCCCCNC(C)C(O)c1ccc(SC(C)C)cc1 (stereo not shown) [suloctidil 15, suloctidil, reference compound] please.
1.33

Quote ED50 vs L. major reported for CCOC(=O)C1=C(COCCN)NC(C)=C(C(=O)OC)C1c1ccccc1Cl (stereo not shown) [amlodipine 2, amlodipine, reference compound] please.
1.91

Cited source: paper PMC7802075
